- System: HCC-2998 colon
- method_summary: NCI-60 one-dose screen, 48 h (100 = growth as untreated, 0 = no growth, -100 = all killed)
- condition_notes: 10 µM
Compounds without any hit were thinned out: in the full panel of roughly 83,000, 20% have a hit. Activity calls are given as the source filed them. Rule for the calls: active = growth percent below 10; inactive = the rest.
metric: growth

Examples from the recorded data:
CCCCCCCCCCCCCCCCCC(=O)OCCCCCCC; 102% (inactive)
O=C(Nc1nc2ccccc2s1)Nc1ccc([N+](=O)[O-])cc1Cl; 76.1% (inactive)
COc1cc(C(=O)N2CCN(c3ccccc3OC)CC2)c(N)cc1OCCCN1CCN(c2ccccc2OC)CC1; 101% (inactive)
CS(=O)(=O)Nc1ccc(Nc2c3ccccc3nc3cc(N)ccc23)cc1; 35.2% (inactive)
O=C1Nc2ccc(Cl)cc2/C1=C\c1c(-c2ccc(Cl)cc2)nc2sc(C3CC3)nn12; 83.7% (inactive)

Enquiry: Value lookup for growth; key = COc1cc(Cl)cc(-c2nn(-c3cccc(NC(=O)c4ccc(N5CCOCC5)c(C(F)(F)F)c4)c3)cc2-c2ccncc2)c1
Return: 52.3% (inactive)

Enquiry: Bench note: what growth did CS(=O)(=O)Nc1cccc(-c2cc(-c3ccccc3Cl)c(C#N)c(N)n2)c1 show?
Return: -3.16% (active)

Enquiry: growth for CCOC(=O)N1C/C(=C/c2ccc(F)cc2)C(=O)/C(=C/c2ccc(F)cc2)C1 ?
Return: -80.9% (active)

Enquiry: Name the reported growth value associated with the compound O=C1ON=[N+](c2ccc(Cc3ccc([N+]4=NOC(=O)C4CN4CCOCC4)cc3)cc2)C1CN1CCOCC1 (stereo not given)
Return: 80.5% (inactive)

Enquiry: Fill in the blank: the reported growth of CC(=O)N(C)c1ccc(Nc2ccc(Nc3ccc(N(C)C(C)=O)cc3)c3c2C(=O)c2ccccc2C3=O)cc1 is ____.
Return: 89.6% (inactive)

Enquiry: Param item = CN1c2ccccc2[C@]2(Cc3ccccc3)Cc3ccccc3N[C@H]12 ; retrieve measured growth.
Return: 103% (inactive)

Enquiry: What value of measured growth is listed for CCOC(=O)CNC(=O)CCCCSc1ncnc2nc[nH]c12 ?
Return: -18% (active)

Enquiry: Look up growth: O=C(Nc1ccc(Cl)c(Cl)c1)Nc1c(Oc2ccc(Cl)c(Cl)c2)ccc(Cl)c1S(=O)(=O)O
Return: 25.2% (inactive)

Enquiry: Look up growth for this compound: O=C(Nc1ccc(OS(=O)(=O)c2ccccc2)cc1)C12CC3CC(CC(C3)C1)C2
Return: 26.1% (inactive)

Enquiry: Which growth is reported for this compound? COc1ccc(N=C2C(=Nc3ccc(OC)cc3)N(c3ccc(N(C)C)cc3)C(=S)N2c2ccc(OC)cc2)cc1
Return: 105% (inactive)

Enquiry: # growth lookup, item COc1ccccc1/C=C/C(=O)c1ccccc1
Return: 101% (inactive)

Entry source: PubChem BioAssay (NCI)
